Test system: MDA-MB-435
Assay: NCI tumour cell line growth inhibition, 48 h
The source made the active and inactive calls. Rule as the data show it: active = GI50 up to about 1.1 µM and inactive = higher.
In this section, each of the molecules is paired with its reported GI50.

molecule | GI50
C(=N\c1ccc(-c2nc3ccccc3[nH]2)cc1)/c1cccs1 | > 100 µM (inactive)
CC[C@@H]1CC[C@@H]2[C@H](CC[C@]3(C)[C@@H](OC(C)=O)CC[C@@H]23)[C@H]1COC(C)=O | 22.5 µM (inactive)
CCOC(=O)c1c(-c2ccc(OC)cc2)c(C#N)c(=S)n(C2OC(CO)C(O)C(O)C2O)c1-c1ccccc1 (configuration not stated) | 30.8 µM (inactive)
COC1OC(C(C)O)C2OC(C)(C)OC12 (configuration not stated) | > 100 µM (inactive)
CC(CC[C@@]1(C)C(=O)CCC2O[C@]21C)[C@H]1C[C@@H](c2ccoc2)OC1=O (some centres not stated) | 44.1 µM (inactive)
COc1ccc(C2C3=C(N=C4SC(C(C)=O)=C(C)N42)c2ccccc2CC3)cc1 (configuration not stated) | > 100 µM (inactive)
O=c1c2cccnc2[nH]c2ccc3cn[nH]c3c12 | > 10 µM (inactive)

====

Tested on: HCC 2998
Assay: NCI tumour cell line growth inhibition, 48 h
Active and inactive are the calls of the source. Cut-off read from the data, not from the text of the source: active = GI50 up to about 1.1 µM and inactive = higher.

compound | target-or-test-system | GI50
O=C(Cn1c(=O)oc2ccc(C(=O)c3ccc(F)cc3)cc21)c1ccc([N+](=O)[O-])cc1 | HCC 2998 | 15.9 µM (inactive)
Cc1nc2c(Br)cc(Br)cc2c(=O)n1-c1ccccc1NC1OCC(O)C(O)C1O (stereo not given) | HCC 2998 | 33.7 µM (inactive)
CN(C)c1ccc(C(c2ccc(Cl)cc2)c2ccc(N(C)C)cc2)cc1 | HCC 2998 | 69 µM (inactive)
CCc1nc(N)c2nc(-c3ccc(C#N)cc3)oc2n1 | HCC 2998 | > 100 µM (inactive)
COC(=O)C1CC2CC1C1C2SC(F)(F)C1(F)F (stereo not given) | HCC 2998 | > 100 µM (inactive)

====

The compounds below have reported GI50 for HCT-15.
assay-readout: GI50 (µM)

compound | value-modifier | reading
[O-]/[N+](=N/c1ncc(-c2ccccc2)cn1)c1ncc(-c2ccccc2)cn1 | = | 36.4
COc1ccc(N2C(=O)c3cc(C)cnc3S2(=O)=O)cc1 | > | 100
Cn1c(=S)c2nc(SCCN3C(=O)c4ccccc4C3=O)[nH]c2n(C)c1=O | > | 100
CC1=NN(C(=O)c2ccccc2O)C(=O)/C1=C/c1ccc([N+](=O)[O-])cc1 | = | 0.361
Cc1ccccc1OC(C)C(=O)NN1C(=O)CSC1c1ccc(Cl)cc1 (stereo unspecified) | = | 46.6
COC(=O)C1=C(C(=O)OC)SC2(S1)C1=C(CCC1)SC(C(=O)OC)=C2C(=O)OC | = | 6.08
CCCCCCCCOCC(O)COC(=O)CCCCCCC (stereo unspecified) | > | 100
O=c1c2cc([N+](=O)[O-])ccc2sc2ccsc12 | > | 100
CN1C(=O)C(O)CC1c1ccccc1F (stereo unspecified) | > | 100
COc1ccc2ccccc2c1C1NC(=O)c2ccccc2N1 (stereo unspecified) | = | 0.436
Cc1ccc(C2=NN(C)COC2C(F)(F)F)cc1 (stereo unspecified) | > | 100

====

System: NCI-H23
Assay: NCI tumour cell line growth inhibition, 48 h
Calls of active or inactive are those of the source. No stated cut-off is given here; in the data, active = GI50 up to about 1.1 µM and inactive = higher.
Labels: active, inactive

compound | group-label
C/C(=C1/N=C(c2cc([N+](=O)[O-])ccc2Cl)N(c2cccc(C)c2)C1=O)c1cc2ccccc2oc1=O | inactive
Cc1c(CNc2ccc(C(=O)NC(CC(=O)O)C(=O)O)cc2)ccc2nc(N)nc(N)c12 (stereo unspecified) | active
Oc1ccc2oc3c(O)c4ccccc4cc3c2c1 | inactive
Cc1ccc(C2=NN(C)COC2C(F)(F)F)cc1 (stereo unspecified) | inactive
Cc1ccc2occ/c(=N\Nc3ccccc3)c2c1 | inactive
CC[C@@H]1CC[C@@H]2[C@H](CC[C@]3(C)[C@@H](OC(C)=O)CC[C@@H]23)[C@H]1COC(C)=O | inactive
O=C(CNCc1ccccc1)Oc1c(Cl)c(Cl)c(Cl)c(Cl)c1Cl | inactive
[O-]/[N+](=N/c1ncc(-c2ccccc2)cn1)c1ncc(-c2ccccc2)cn1 | inactive
CCO/C(CCn1[nH]c(=O)c(Cl)c(Cl)c1=O)=N\NC(=O)C(=O)NN | inactive
C/C(=N\NC(=N)N)C(CN1CCCCC1)C(c1ccccc1)c1c(O)c2ccccc2oc1=O (stereo unspecified) | inactive
CC1=C2C(=O)O[C@@H](c3ccoc3)[C@]2(C)CCC1 | inactive
COc1ccc2c(c1)CCc1c-2[nH]c2ccc(OC)cc12 | inactive
NC(CCC(=O)O)C(=O)NC(Cc1ccc(N(CCCl)CCCl)cc1)C(=O)O (stereo unspecified) | inactive
CCCCCCCCC/C=C1\CC(CO)(COC(=O)c2ccccc2)OC1=O (stereo unspecified) | inactive
CC/C(=N\NC(=O)c1cccnc1)c1ccc2c(c1)OCCO2 | inactive
O=S(=O)(O)c1ccc2c(/N=N/c3ccc(Sc4ccc(/N=N/c5c(O)ccc6cc(S(=O)(=O)O)ccc56)cc4)cc3)c(O)ccc2c1 | inactive
CSc1nncc2[nH]c(C)nc12 | inactive
CCOC(=O)N1CCN(C=S)CC1 | inactive
COc1ccc(C(=O)N=C2N(c3ccccc3)C(=N/c3ccccc3)/C(=N\c3ccccc3)N2c2ccccc2)cc1 | inactive
O=C1C(c2ccccc2)=C(c2ccccc2)C1(Cl)Cl | inactive
Cc1ccc2nc(-c3ccc(-c4nc5ccc(C)cc5o4)c(O)c3)oc2c1 | inactive

====

System: OVCAR-3
Test: NCI tumour cell line growth inhibition, 48 h
Active and inactive are the calls of the source. No stated cut-off is given here; in the data, active = GI50 up to about 1.1 µM and inactive = higher. Where a SMILES comes first, the peptide text is derived from it. [ ]: non-standard residue; d: D form. The star is where a group is joined. ξ: configuration not given here. X4 = COc1ccc(C(N*)c2ccc(OC)cc2)cc1; NMeF = CN[C@@H](Cc1ccccc1)C(=O)O; NMeD = CN[C@@H](CC(=O)O)C(=O)O; NMeV = CN[C@H](C(=O)O)C(C)C; ξNMeV = CNC(C(=O)O)C(C)C; Boc = CC(C)(C)OC(=O)*; ξNMeA = CNC(C)C(=O)O; ξV = CC(C)C(N)C(=O)O
Labels: yes (1) (active), no (0) (inactive)

compound | group-label
S=c1[nH]nc(Cn2c3ccc(Br)cc3c3nc4ccccc4nc32)n1C1CCCCC1 | no (0)
O=C1NC(=O)C(c2c[nH]c3cc(Br)ccc23)=C1c1cn(C(c2ccccc2)(c2ccccc2)c2ccccc2)cn1 | no (0)
CC(C)/C(Cl)=N/OC(=O)Nc1ccc(OC(F)(F)F)cc1 | no (0)
Cc1ccccc1OC(C)C(=O)NN1C(=O)CSC1c1ccc(Cl)cc1 (stereo not drawn) | no (0)
COc1ccc2nc3cc(Cl)ccc3c(Sc3ccc([N+](=O)[O-])cc3)c2c1 | no (0)
O=S(=O)(O)c1cc(O)c2c(O)c(/N=N/c3ccc(/C=C/c4ccc(/N=N/c5c(S(=O)(=O)O)cc6cc(S(=O)(=O)O)cc(O)c6c5O)cc4S(=O)(=O)O)c(S(=O)(=O)O)c3)c(S(=O)(=O)O)cc2c1 | no (0)
N#Cc1cc(N(CCCl)CCCl)c([N+](=O)[O-])cc1[N+](=O)[O-] | no (0)
c1ccc(CNc2ccc3[nH]c4cnccc4c3c2)cc1 | no (0)
CC1C=CN(N(C)C)C2=C1C(=O)c1cnccc1C2=O (stereo not drawn) | yes (1)
C(=N\c1ccc(-c2nc3ccccc3[nH]2)cc1)/c1cccs1 | no (0)
O=S(=O)(c1ccccc1)C1(C2(S(=O)(=O)c3ccccc3)CCN=N2)CCN=N1 (stereo not drawn) | no (0)
Cc1nc2c(n1-c1ccccc1)C(=O)c1ccccc1C2=O | no (0)
CN(C)C(=O)OC(Cn1cncn1)(Cn1cncn1)c1ccc(Cl)cc1Cl | no (0)
Cc1ccc2c(C(=O)c3c(C)n(CCN4CCOCC4)c4ccccc34)cccc2c1 | no (0)
COc1ccc(C(NC(=O)C[C@@H](C(=O)N(C)C(C)C(=O)O)N(C)C(=O)[C@@H]2CCCN2C(=O)[C@H](C(C)C)N(C)C(=O)C(C(C)C)N(C)C(=O)[C@H](Cc2ccccc2)N(C)C(=O)C(NC(=O)OC(C)(C)C)C(C)C)c2ccc(OC)cc2)cc1 (stereo partly drawn) (Boc-[ξV][NMeF][ξNMeV][NMeV]P[NMeD](X4)[ξNMeA]-OH) | no (0)
CC1=NN2C(=N)/C(=C/c3ccco3)C(=O)N=C2S1 | no (0)
Cc1cc(O)c(C(=O)CC2(O)C(=O)Nc3c(Cl)cc(Cl)cc32)c(=O)o1 (stereo not drawn) | no (0)
O=C(O)CSC1=NCCN1 | no (0)
